# Measured target: legumain (Homo sapiens)
# Experiment notes: Fluorogenic continuous rate assay of legumain activity, substrate Z-Ala-Ala-Asn-AMC (kobs/[I])
# Assay type: biochemical
# Condition notes: substrate Z-Ala-Ala-Asn-AMC; 37° C. or 30° C.; sodium citrate buffer, 1 mM dithiothreitol, 1 mM EDTA; approximate second-order inactivation constants
Measurement name: kobs/[l] (second-order rate constant for the inactivation of legumain) (M⁻¹ s⁻¹)

Reference set (2 entries):
Lookup: Lab note: record kobs/[l] (second-order rate constant for the inactivation of legumain) of `C=CCOC(=O)/C=C/[C@H](CC(N)=O)NC(=O)[C@H](C)NC(=O)[C@H](C)NC(=O)OCc1ccccc1` tested on legumain (Homo sapiens).
Found: 776

Lookup: Give kobs/[l] (second-order rate constant for the inactivation of legumain); test system legumain (Homo sapiens); molecule `C[C@H](NC(=O)OCc1ccccc1)C(=O)N[C@@H](C)C(=O)NN(CC(N)=O)C(=O)COC(=O)c1ccccc1`
Found: 13

[a] C[C@H](NC(=O)OCc1ccccc1)C(=O)N[C@@H](C)C(=O)NN(CC(N)=O)C(=O)CBr
[b] COC(=O)/C(C)=C/[C@H](CC(N)=O)NC(=O)C(C)NC(=O)C(C)NC(=O)OCc1ccccc1 (stereo partly shown)
Lookup: So which one has the bigger kobs/[l] (second-order rate constant for the inactivation of legumain) here, a or b ? API: response body contains the label of the selected item.
Found: a
(a: 84000 M⁻¹ s⁻¹, b: 2 M⁻¹ s⁻¹)

---

# Measured target: legumain (Homo sapiens, UniProt Q99538)
# Experiment notes: Fluorogenic continuous rate assay of legumain activity, substrate Z-Ala-Ala-Asn-AMC (kobs/[I])
# Type: biochemical
# Condition notes: substrate Z-Ala-Ala-Asn-AMC; 37° C. or 30° C.; sodium citrate buffer, 1 mM dithiothreitol, 1 mM EDTA; approximate second-order inactivation constants
Measurement name: kobs/[l] (second-order rate constant for the inactivation of legumain) (M⁻¹ s⁻¹)

[A] CCOC(=O)/C(C)=C/[C@H](CC(N)=O)NC(=O)C(C)NC(=O)C(C)NC(=O)OCc1ccccc1 (stereo partly drawn) [Compound 10]
[B] COC(=O)/C=C/[C@H](CC(N)=O)NC(=O)[C@H](C)NC(=O)[C@H](C)NC(=O)OCc1ccccc1 [Compound 5]
Lookup: Among A and B , which shows a numerically higher kobs/[l] (second-order rate constant for the inactivation of legumain) result? Mark your selection by writing its label.
Found: B

---

# Measured target: legumain (Homo sapiens)
# Sequence (Q99538 18-323): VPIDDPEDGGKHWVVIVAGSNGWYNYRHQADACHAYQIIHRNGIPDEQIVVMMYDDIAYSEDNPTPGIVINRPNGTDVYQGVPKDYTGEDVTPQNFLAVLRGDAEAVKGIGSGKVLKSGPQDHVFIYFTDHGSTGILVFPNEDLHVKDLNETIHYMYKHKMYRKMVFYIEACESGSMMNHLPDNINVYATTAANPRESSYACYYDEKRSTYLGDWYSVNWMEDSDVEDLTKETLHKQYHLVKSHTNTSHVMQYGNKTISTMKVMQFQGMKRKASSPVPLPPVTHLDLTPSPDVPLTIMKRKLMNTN
# Experiment notes: Fluorogenic continuous rate assay of legumain activity, substrate Z-Ala-Ala-Asn-AMC (kobs/[I])
# Assay type: biochemical
# Condition notes: substrate Z-Ala-Ala-Asn-AMC; 37° C. or 30° C.; sodium citrate buffer, 1 mM dithiothreitol, 1 mM EDTA; approximate second-order inactivation constants
Measurement name: kobs/[l] (second-order rate constant for the inactivation of legumain) (M⁻¹ s⁻¹)

[P] CC(NC(=O)OCc1ccccc1)C(=O)NC(C)C(=O)N[C@H](/C=C/C(=O)O)CC(N)=O (stereo partly drawn) [Compound 8]
[Q] CC(NC(=O)OCc1ccccc1)C(=O)NC(C)C(=O)NN(CC(N)=O)C(=O)CCl (stereo not drawn) [Compound 18]
[R] CCOC(=O)/C=C/[C@H](CC(N)=O)NC(=O)[C@H](C)NC(=O)[C@H](C)NC(=O)OCc1ccccc1 [Compound 6]
Lookup: Re-order the entries listed above so their kobs/[l] (second-order rate constant for the inactivation of legumain) values fall from first to last. Respond with the label ranking, as requested.
Found: Q, R, P

meta.source: patent US7279550B2
